Tested on: A549
Assay: Antiproliferative activity against human A549 cells measured after 48 hrs by MTT assay
Assay type: functional, cell-based
Settings: A549, 48 h
pIC50: −log10 of the molar value.
REPORTED_ENDPOINT: pIC50

molecule=C[C@H]1[C@H](OC(=O)CCC(=O)OCCCCn2ccnc2[N+](=O)[O-])O[C@@H]2O[C@@]3(C)CC[C@H]4[C@H](C)CC[C@@H]1[C@@]24OO3 number=4.78
molecule="C[C@@H]1CC[C@H]2[C@@H](C)C(OC(=O)c3c[nH]c4ccccc34)O[C@@H]3O[C@@]4(C)CC[C@@H]1[C@]32OO4 (stereo partly specified)" number=4.89
molecule="C[C@H]1[C@H](OC(=O)CCC(=O)O)O[C@@H]2O[C@@]3(C)CC[C@H]4[C@H](C)CC[C@@H]1[C@@]24OO3 [ARTESUNATE]" number=4.30
molecule=C[C@H]1[C@H](OC(=O)CCC(=O)OCCCCn2cc(C#N)nc2Cl)O[C@@H]2O[C@@]3(C)CC[C@H]4[C@H](C)CC[C@@H]1[C@@]24OO3 number=4.63
molecule=C[C@H]1[C@H](OC(=O)CCC(=O)OCCCCn2cnc(C#N)c2C#N)O[C@@H]2O[C@@]3(C)CC[C@H]4[C@H](C)CC[C@@H]1[C@@]24OO3 number=4.75
molecule=C[C@H]1[C@H](OC(=O)CCC(=O)OCCn2cnc(Br)c2)O[C@@H]2O[C@@]3(C)CC[C@H]4[C@H](C)CC[C@@H]1[C@@]24OO3 number=4.61

###

Recorded inhibition at 48 h, 5 µM by entry
Test: Toxicity in human MCF7 cells assessed as inhibition of cell proliferation at 5 uM measured after 48 hrs by MTT assay
Format: cell-based
REPORTED_ENDPOINT: inhibition at 48 h, 5 µM (%)

smiles_input=C[C@H]1[C@H](OC(=O)CCC(=O)OCCCn2cnc([N+](=O)[O-])c2)O[C@@H]2O[C@@]3(C)CC[C@H]4[C@H](C)CC[C@@H]1[C@@]24OO3 reported_endpoint="inhibition at 48 h, 5 µM" unit_tag=% number=22.3
smiles_input=C[C@H]1[C@H](OC(=O)CCC(=O)OCCCn2ccnc2[N+](=O)[O-])O[C@@H]2O[C@@]3(C)CC[C@H]4[C@H](C)CC[C@@H]1[C@@]24OO3 reported_endpoint="inhibition at 48 h, 5 µM" unit_tag=% number=22.3
smiles_input=C[C@H]1[C@H](OC(=O)CCC(=O)OCCn2cnc(Br)c2)O[C@@H]2O[C@@]3(C)CC[C@H]4[C@H](C)CC[C@@H]1[C@@]24OO3 reported_endpoint="inhibition at 48 h, 5 µM" unit_tag=% number=12.4

###

Recorded inhibition at 48 h, 5 µM by entry
Assay: Toxicity in human MCF7 cells assessed as inhibition of cell proliferation at 5 uM measured after 48 hrs by MTT assay
Type: cell-based
REPORTED_ENDPOINT: inhibition at 48 h, 5 µM (%)

compound=C[C@H]1[C@H](OC(=O)CCC(=O)OCCCCn2cc(C#N)nc2Cl)O[C@@H]2O[C@@]3(C)CC[C@H]4[C@H](C)CC[C@@H]1[C@@]24OO3 number=16.6
compound=C[C@H]1[C@H](OC(=O)CCC(=O)OCCn2cc(C#N)nc2Cl)O[C@@H]2O[C@@]3(C)CC[C@H]4[C@H](C)CC[C@@H]1[C@@]24OO3 number=21.3
compound="C[C@@H]1CC[C@H]2[C@@H](C)C(OC(=O)c3c[nH]c4ccc(Cl)cc34)O[C@@H]3O[C@@]4(C)CC[C@@H]1[C@]32OO4 (some centres undefined)" number=32.1
compound=C[C@H]1[C@H](OC(=O)CCC(=O)OCCCCn2cnc([N+](=O)[O-])c2)O[C@@H]2O[C@@]3(C)CC[C@H]4[C@H](C)CC[C@@H]1[C@@]24OO3 number=20.2

###

Assay: Toxicity in human MCF7 cells assessed as inhibition of cell proliferation at 5 uM measured after 48 hrs by MTT assay
Type: cell-based
Recorded inhibition at 48 h, 5 µM by entry
REPORTED_ENDPOINT: inhibition at 48 h, 5 µM (%)

molecule=C[C@H]1[C@H](OC(=O)CCC(=O)OCCCCn2ccnc2[N+](=O)[O-])O[C@@H]2O[C@@]3(C)CC[C@H]4[C@H](C)CC[C@@H]1[C@@]24OO3 unit_tag=% number=19.8
molecule=C[C@H]1[C@H](OC(=O)CCC(=O)OCCn2cnc([N+](=O)[O-])c2)O[C@@H]2O[C@@]3(C)CC[C@H]4[C@H](C)CC[C@@H]1[C@@]24OO3 unit_tag=% number=7.78
molecule="C[C@@H]1CC[C@H]2[C@@H](C)C(OC(=O)c3c[nH]c4ccccc34)O[C@@H]3O[C@@]4(C)CC[C@@H]1[C@]32OO4 (some centres not stated)" unit_tag=% number=18.9
molecule=C[C@H]1[C@H](OC(=O)CCC(=O)OCCn2ccnc2[N+](=O)[O-])O[C@@H]2O[C@@]3(C)CC[C@H]4[C@H](C)CC[C@@H]1[C@@]24OO3 unit_tag=% number=13.5
molecule="C[C@@H]1CC[C@H]2[C@@H](C)C(OC(=O)/C=C/c3cc4ccccc4[nH]3)O[C@@H]3O[C@@]4(C)CC[C@@H]1[C@]32OO4 (some centres not stated)" unit_tag=% number=5.38
molecule=C[C@H]1[C@H](OC(=O)CCC(=O)OCCCCn2cnc(C#N)c2C#N)O[C@@H]2O[C@@]3(C)CC[C@H]4[C@H](C)CC[C@@H]1[C@@]24OO3 unit_tag=% number=11.2
molecule=C[C@H]1[C@H](OC(=O)CCC(=O)OCCCn2cc(C#N)nc2Cl)O[C@@H]2O[C@@]3(C)CC[C@H]4[C@H](C)CC[C@@H]1[C@@]24OO3 unit_tag=% number=12.8
molecule=C[C@H]1[C@H](OC(=O)CCC(=O)OCCCn2cnc(C#N)c2C#N)O[C@@H]2O[C@@]3(C)CC[C@H]4[C@H](C)CC[C@@H]1[C@@]24OO3 unit_tag=% number=15
molecule=C[C@H]1[C@H](OC(=O)CCC(=O)OCCn2cnc(C#N)c2C#N)O[C@@H]2O[C@@]3(C)CC[C@H]4[C@H](C)CC[C@@H]1[C@@]24OO3 unit_tag=% number=13.7
molecule=C[C@H]1[C@H](OC(=O)CCC(=O)OCCCn2cnc(Br)c2)O[C@@H]2O[C@@]3(C)CC[C@H]4[C@H](C)CC[C@@H]1[C@@]24OO3 unit_tag=% number=23.2
molecule=C[C@H]1[C@H](OC(=O)CCC(=O)OCCCCn2cnc(Br)c2)O[C@@H]2O[C@@]3(C)CC[C@H]4[C@H](C)CC[C@@H]1[C@@]24OO3 unit_tag=% number=8.95
molecule="COc1ccc2[nH]cc(C(=O)OC3O[C@@H]4O[C@@]5(C)CC[C@H]6[C@H](C)CC[C@@H]([C@H]3C)[C@@]46OO5)c2c1 (some centres not stated)" unit_tag=% number=19.8

###

Test system: A549
Experiment: Antiproliferative activity against human A549 cells measured after 48 hrs by MTT assay
Format: functional, cell-based
Conditions: A549, 48 h
pIC50: −log10 of the molar value. Where a name gives a salt, the structure may show the parent alone.
REPORTED_ENDPOINT: pIC50

compound=C[C@H]1[C@H](OC(=O)CCC(=O)OCCCCn2cnc([N+](=O)[O-])c2)O[C@@H]2O[C@@]3(C)CC[C@H]4[C@H](C)CC[C@@H]1[C@@]24OO3 reported_endpoint=pIC50 sign_qualifier== number=4.59
compound="C[C@@H]1CC[C@H]2[C@@H](C)C(OC(=O)c3c[nH]c4ccc(Cl)cc34)O[C@@H]3O[C@@]4(C)CC[C@@H]1[C@]32OO4 (some centres undefined)" reported_endpoint=pIC50 sign_qualifier== number=5.21
compound=C[C@H]1[C@H](OC(=O)CCC(=O)OCCn2cc(C#N)nc2Cl)O[C@@H]2O[C@@]3(C)CC[C@H]4[C@H](C)CC[C@@H]1[C@@]24OO3 reported_endpoint=pIC50 sign_qualifier== number=4.68
compound=C[C@H]1[C@H](OC(=O)CCC(=O)OCCn2cnc(C#N)c2C#N)O[C@@H]2O[C@@]3(C)CC[C@H]4[C@H](C)CC[C@@H]1[C@@]24OO3 reported_endpoint=pIC50 sign_qualifier== number=4.91
compound=C[C@H]1[C@H](OC(=O)CCC(=O)OCCCCn2cnc(Br)c2)O[C@@H]2O[C@@]3(C)CC[C@H]4[C@H](C)CC[C@@H]1[C@@]24OO3 reported_endpoint=pIC50 sign_qualifier== number=4.72
compound=C[C@H]1[C@H](OC(=O)CCC(=O)OCCCn2ccnc2[N+](=O)[O-])O[C@@H]2O[C@@]3(C)CC[C@H]4[C@H](C)CC[C@@H]1[C@@]24OO3 reported_endpoint=pIC50 sign_qualifier== number=4.68
compound="COc1cccc2c1C(=O)c1c(O)c3c(c(O)c1C2=O)C[C@@](O)(C(=O)CO)C[C@@H]3O[C@H]1C[C@H](N)[C@H](O)[C@H](C)O1 [DOXORUBICIN HYDROCHLORIDE]" reported_endpoint=pIC50 sign_qualifier== number=5.95
compound=C[C@H]1[C@H](OC(=O)CCC(=O)OCCCn2cnc(Br)c2)O[C@@H]2O[C@@]3(C)CC[C@H]4[C@H](C)CC[C@@H]1[C@@]24OO3 reported_endpoint=pIC50 sign_qualifier== number=4.58
compound=C[C@H]1[C@H](OC(=O)CCC(=O)OCCCn2cnc([N+](=O)[O-])c2)O[C@@H]2O[C@@]3(C)CC[C@H]4[C@H](C)CC[C@@H]1[C@@]24OO3 reported_endpoint=pIC50 sign_qualifier== number=4.70
compound=C[C@@H]1CC[C@H]2[C@@H](C)C(=O)O[C@@H]3O[C@@]4(C)CC[C@@H]1[C@]32OO4 reported_endpoint=pIC50 sign_qualifier=< number=4.30
compound=C[C@H]1[C@H](OC(=O)CCC(=O)OCCn2cnc([N+](=O)[O-])c2)O[C@@H]2O[C@@]3(C)CC[C@H]4[C@H](C)CC[C@@H]1[C@@]24OO3 reported_endpoint=pIC50 sign_qualifier== number=4.90
compound=C[C@H]1[C@@H](O)O[C@@H]2O[C@@]3(C)CC[C@H]4[C@H](C)CC[C@@H]1[C@@]24OO3 reported_endpoint=pIC50 sign_qualifier== number=4.34
compound=C[C@H]1[C@H](OC(=O)CCC(=O)OCCCn2cnc(C#N)c2C#N)O[C@@H]2O[C@@]3(C)CC[C@H]4[C@H](C)CC[C@@H]1[C@@]24OO3 reported_endpoint=pIC50 sign_qualifier== number=4.57
compound=C[C@H]1[C@H](OC(=O)CCC(=O)OCCCn2cc(C#N)nc2Cl)O[C@@H]2O[C@@]3(C)CC[C@H]4[C@H](C)CC[C@@H]1[C@@]24OO3 reported_endpoint=pIC50 sign_qualifier== number=4.71
